This collection of values is drawn from patent US20080125496A1.

test system: Porphyromonas gingivalis JCM 8525; assay: MIC by agar plate dilution method, Pg-1; type: cell-based; details: Porphyromonas gingivalis, JCM8525; agar medium, 37° C., 72 hours, anaerobic conditions; read-out: MIC Pg-1 (paradentosis-related bacteria; head Fg-1 in Tables 2 and 3)
This section presents molecules with their documented log10 MIC values.
log10 MIC, µg/mL

These recorded examples may help you get a feel for the data.
1) CCCCCCCCC(C)C=O (stereo not shown): 1.80
2) C=CCCCCCCCCO: 2.10
3) C=CCCCCCCCCCO: 1.50
4) CCCCCCCCCC(C)C=O (stereo not shown): 1.80
5) O=C1CCCC=CCCCCCCCCCC1: 1.19

// query So what's the measured log10 MIC for this one? "C=C(C)[C@@H]1CCC2=CC(=O)C[C@@H](C)[C@]2(C)C1"
// result 0.89

// query So what's the measured log10 MIC for this one? "CCCCCCCCC=CCC=O"
// result 1.80

// query So what's the measured log10 MIC for this one? "C=C(C)[C@@H]1CC=C(CO)CC1"
// result 2.10

* * *

This section presents compounds with their documented MIC values.
system: Prevotella intermedia JCM 6322; experiment: MIC by agar plate dilution method, Pt-1; type: cell-based; details: Prevotella intermedia, JCM6322; agar medium, 37° C., 72 hours, anaerobic conditions; read-out: MIC Pt-1 (paradentosis-related bacteria)
Entry rule: numbers only, all in µg/mL.

These recorded examples may help you get a feel for the data.
1) C=CCCCCCCCCCO: 31.3
2) CCCCCCCCC=CCC=O: 31.3
3) CCCCCCCCCC(C)C=O (stereo not drawn): 62.5

// query Form entry - test system: Prevotella intermedia JCM 6322; read-out: MIC; compound: "CCCCCCCCCO"
// result 250

// query Form entry - test system: Prevotella intermedia JCM 6322; read-out: MIC; compound: "C[C@@H]1CC[C@H]2C(C)(C)[C@H]3C[C@@]12CC[C@@]3(C)O"
// result 31.3

// query Form entry - test system: Prevotella intermedia JCM 6322; read-out: MIC; compound: CCCCCCCCC(C)C=O (stereo not drawn)
// result 125

* * *

This section presents compounds with their documented MIC values.
tested on: Porphyromonas gingivalis JCM 8525; assay: MIC by agar plate dilution method, Pg-1; assay type: cell-based; details: Porphyromonas gingivalis, JCM8525; agar medium, 37° C., 72 hours, anaerobic conditions; read-out: MIC Pg-1 (paradentosis-related bacteria; head Fg-1 in Tables 2 and 3)
Just so you know, I need the unit written after the number.

1. CCCCCCCCCCC=O [Undecanal]: 125 µg/mL
2. CCCCCCCCCO [1-nonanol]: 250 µg/mL

// query So what's the measured MIC for this one? CCCCCCCCCCCC=O [Dodecanal]
// result 62.5 µg/mL

// query So what's the measured MIC for this one? CC1CCC(C(C)C)C(OCC(O)CO)C1 (centres unmarked) [3-Menthoxypropane-1,2-diol]
// result 250 µg/mL

// query So what's the measured MIC for this one? C[C@@H]1CC[C@H]2C(C)(C)[C@H]3C[C@@]12CC[C@@]3(C)O [Cedrol]
// result 31.3 µg/mL
